Experiment: Cmax in female rat at 500 mg/kg, po after 7 days
Format: ADME, organism-based
Design: dose 500 mg/kg, route oral
Details: in vivo
result_type: Cmax (ng/mL)
Number in ng/mL, nothing else.

For reference, reported Cmax for `Cc1cc(Cn2c(=O)c(C3=CS(=O)(=O)c4cc(NS(C)(=O)=O)ccc4N3)c(O)c3cc(F)ccc32)ccc1F` stands at 89.3

---

Experiment: Toxicity in rat assessed as adverse effects after 7 days
Assay type: organism-based
Conditions: in vivo
result_type: NOAEL at 168 h

Value of NOAEL at 168 h reported for the molecule `Cc1cc(Cn2c(=O)c(C3=CS(=O)(=O)c4cc(NS(C)(=O)=O)ccc4N3)c(O)c3cc(F)ccc32)ccc1F` is > 500 mg/kg/day

---

Assay: Half life in dog at 1 mg/kg, po
Type: ADME, organism-based, Canis lupus familiaris
Set-up: dose 1 mg/kg, route oral
Conditions: in vivo
result_type: half-life
Answer format reminder: number followed by unit.

half-life reported for this compound `Cc1cc(Cn2c(=O)c(C3=CS(=O)(=O)c4cc(NS(C)(=O)=O)ccc4N3)c(O)c3cc(F)ccc32)ccc1F` : 1.2 h

---

Assay: AUC in female rat at 500 mg/kg, po after 7 days
Format: ADME, organism-based
Parameters: dose 500 mg/kg, route oral
Conditions: plasma
result_type: AUC at 168 h (ng·h/mL)
// return numeric value only (unit: ng·h/mL, not printed)

Short answer for `Cc1cc(Cn2c(=O)c(C3=CS(=O)(=O)c4cc(NS(C)(=O)=O)ccc4N3)c(O)c3cc(F)ccc32)ccc1F` : AUC at 168 h was 1470

---

System: Hepatitis C virus
Test: Inhibition of HCV 1b isolate BK NS5B Cdelta21 polymerase expressed in Escherichia coli
Design: species or system Hepatitis C virus subtype 1b
result_type: IC50 (nM)
Field format: number, assumed nM, no unit text.

IC50 measured on `O=c1c(C2=Nc3ccccc3S(=O)(=O)N2)c(O)c2cc(F)ccc2n1CCC1CC1` = 30

---

Experiment: Dissociation constant, pKa of the compound
Type: physicochemical
result_type: pKa
Give the figure only, with no unit attached.

Reported pKa of `CS(=O)(=O)Nc1ccc2c(c1)S(=O)(=O)C=C(c1c(O)c3cc(F)ccc3n(Cc3ccc(F)cc3)c1=O)N2` : 3.8

---

Assay: AUC (0 to 24 hrs) in female rat at 500 mg/kg, po after 1 day
Type: ADME, organism-based
Parameters: time < 24 hr, dose 500 mg/kg, route oral
Conditions: plasma
result_type: AUC(0-t) at 24 h (ng·h/mL)
Write the answer as a number in ng·h/mL, unit excluded.

Lab book: AUC(0-t) at 24 h of `Cc1cc(Cn2c(=O)c(C3=CS(=O)(=O)c4cc(NS(C)(=O)=O)ccc4N3)c(O)c3cc(F)ccc32)ccc1F` noted as 701

---

System: Hepatitis C virus
Experiment: Antiviral activity against HCV genotype 1b isolate con1 infected in human 2209-23 cells assessed as inhibition of [3H]thymidine incorporation into DNA by scintillation proximity assay in presence of 5% fetal bovine serum
Assay type: functional, organism-based, Hepacivirus hominis
Details: isolate Con1, 2209-23
Kindly note that classification relies on EC50 with these boundaries: low-valued: < 100 nM; mid-valued: ≥ 100 nM and < 1000 nM; high-valued: ≥ 1000 nM

Exercise: Please let me know in which category the item `NC(=O)COc1ccc2c(c1)S(=O)(=O)C=C(c1c(O)c3cc(F)ccc3n(Cc3ccc(F)cc3)c1=O)N2` belongs.
Solution: high-valued

Exercise: Sort `CC(=O)Nc1ccc2c(c1)S(=O)(=O)C=C(c1c(O)c3cc(F)ccc3n(Cc3ccc(F)cc3)c1=O)N2` into one of the categories.
Solution: high-valued

Exercise: // bin(item) where item = `NS(=O)(=O)Nc1ccc2c(c1)S(=O)(=O)C=C(c1c(O)c3cc(F)ccc3n(Cc3ccc(F)cc3)c1=O)N2`
Solution: low-valued

Exercise: Classify this compound: CCCC(C)n1c(=O)c(C2=CS(=O)(=O)c3cc(NS(C)(=O)=O)ccc3N2)c(O)c2cc(F)ccc21 (stereo unspecified)
Solution: low-valued

Exercise: GET /class?item= `CS(=O)(=O)Nc1ccc2c(c1)S(=O)(=O)C=C(c1c(O)c3cc(F)ccc3n(Cc3cccnc3)c1=O)N2`
Solution: mid-valued

Exercise: Where would `O=c1c(C2=CS(=O)(=O)c3cc(O)ccc3N2)c(O)c2cc(F)ccc2n1Cc1ccc(F)cc1` land among the classes by reported EC50?
Solution: high-valued

Exercise: Returns: class label. Input: `COC(C)(C)CCn1c(=O)c(C2=CS(=O)(=O)c3cc(NS(C)(=O)=O)ccc3N2)c(O)c2cc(F)ccc21`
Solution: low-valued

Exercise: Exam item: assign `O=c1c(C2=CS(=O)(=O)c3ccccc3N2)c(O)c2cc(F)ccc2n1Cc1ccc(F)cc1` to the correct category.
Solution: mid-valued

Exercise: Which EC50 category applies to `CS(=O)(=O)Nc1ccc2c(c1)S(=O)(=O)C=C(c1c(O)c3cc(F)ccc3n(Cc3ccc(F)c(Cl)c3)c1=O)N2` here?
Solution: low-valued

Exercise: Category of `CS(=O)(=O)Nc1ccc2c(c1)S(=O)(=O)C=C(c1c(O)c3ccc(Cl)cc3n(Cc3ccc(F)cc3)c1=O)N2` :
Solution: high-valued

Exercise: Which EC50 category applies to `CN(c1ccc2c(c1)S(=O)(=O)C=C(c1c(O)c3cc(F)ccc3n(Cc3ccc(F)cc3)c1=O)N2)S(C)(=O)=O` here?
Solution: high-valued

Exercise: # bin lookup: classify `COc1ccc2c(c1)c(O)c(C1=CS(=O)(=O)c3cc(NS(C)(=O)=O)ccc3N1)c(=O)n2Cc1ccc(F)cc1` by its EC50
Solution: mid-valued

Exercise: Into which bin does this compound go? `CS(=O)(=O)c1ccc2c(c1)S(=O)(=O)C=C(c1c(O)c3cc(F)ccc3n(Cc3ccc(F)cc3)c1=O)N2`
Solution: high-valued

Exercise: Sort into band: `CS(=O)(=O)Nc1ccc2c(c1)S(=O)(=O)C=C(c1c(O)c3ccc(F)cc3n(Cc3ccc(F)cc3)c1=O)N2`
Solution: low-valued
